studyTarget: Potassium channel subfamily K member 3 (Homo sapiens) (UniProt O14649)
Sequence (O14649 whole entry, looked up): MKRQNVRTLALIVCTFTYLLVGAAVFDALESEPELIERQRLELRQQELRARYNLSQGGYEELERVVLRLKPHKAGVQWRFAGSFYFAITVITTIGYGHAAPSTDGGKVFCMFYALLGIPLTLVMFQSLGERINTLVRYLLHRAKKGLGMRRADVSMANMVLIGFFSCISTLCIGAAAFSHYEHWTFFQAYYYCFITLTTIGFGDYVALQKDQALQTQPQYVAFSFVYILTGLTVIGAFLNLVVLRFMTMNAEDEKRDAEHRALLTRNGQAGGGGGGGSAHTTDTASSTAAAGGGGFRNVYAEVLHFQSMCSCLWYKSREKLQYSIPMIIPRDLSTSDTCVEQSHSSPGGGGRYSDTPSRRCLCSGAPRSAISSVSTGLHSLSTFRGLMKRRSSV
protocolNotes: human KCNK3 channel inhibitors, primary screen, CHO cells, FluxOR thallium flux, B-score (AID 602410);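 for B-score: more negative B-score means stronger inhibition of thallium flux through KCNK3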
assayConditions: FluxOR fluorescence, at 10 µM
Among all 340,000 compounds or so, about 2,800 (0.82%) were called active.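 Rule for the calls: active = B-score under library mean minus 4 SD, starting fluorescence ratio at most library mean plus 5 SD; inactive = the rest.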 What follows is part of a selection rich in actives, with near analogues and random picks from the rest.
Hi! Could you answer with just one of these? TRUE (active), FALSE (inactive)

# compound, answerLabel
measured = [
    ("COc1ccccc1N1CCN(/N=C/c2ccc(O)cc2O)CC1", "FALSE"),
    ("FC(F)(F)c1cc(-c2ccco2)nc(NCc2ccc(Cl)cc2)n1", "TRUE"),
    ("COc1nc(NCc2ccc(Cl)cc2)nc(OC)n1", "FALSE"),
]

q: How was FC(F)(F)c1cc(-c2cccs2)nc(NCc2ccco2)n1 classified in this test?
a: FALSE

q: Quick one: COc1ccc(N2CCN(S(=O)(=O)c3ccc4c(c3)NC(=O)C(C)C(=O)N4)CC2)cc1 (stereo unspecified)
a: FALSE

q: Quick one: O=C(COC(=O)/C=C/c1ccc(S(=O)(=O)N2CCCCCC2)cc1)NCc1ccccc1Cl
a: FALSE

###

studyTarget: Potassium channel subfamily K member 3 (Homo sapiens)
protocolNotes: human KCNK3 channel inhibitors, primary screen, CHO cells, FluxOR thallium flux, B-score (AID 602410);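 for B-score: more negative B-score means stronger inhibition of thallium flux through KCNK3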
assayConditions: FluxOR fluorescence, at 10 µM
Out of some 340,000 compounds screened, about 2,800 (0.82%) were called active.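 Rule for the calls: active = B-score under library mean minus 4 SD, starting fluorescence ratio at most library mean plus 5 SD; inactive = the rest.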 Only a selection was taken, and actives are over-represented in it overall.
Hi! Could you answer with just one of these? label 1 (active), label 0 (inactive)

Completed entries (count: 10):
# molecule, answerLabel
rows = [
    ("Cc1ccc(S(=O)(=O)N2C[C@@H]3CCCC[C@@H]3[C@@H](C)[C@H]2c2cn(Cc3ccccc3)c3ccc(F)cc23)cc1", "label 0"),
    ("COc1ccc(Nc2ncnc3sc(C)cc23)cc1", "label 0"),
    ("CCCCNC(=O)C1(O)c2ccccc2NC(=O)N1c1ccc(Cl)cc1 (stereo not drawn)", "label 0"),
    ("CCC(C)(C)NC(=O)C(c1ccc(O)cc1)N(Cc1ccco1)C(=O)CCC(=O)Nc1ccccn1 (stereo not drawn)", "label 0"),
    ("Cc1cccc2cc(CN(Cc3nnnn3Cc3ccccc3)C3CCCC3)c(=O)[nH]c12", "label 1"),
    ("COc1ccc(Nc2ncnc3sc(-c4ccccc4)cc23)c(OC)c1", "label 1"),
    ("Cc1cccc(N(Cc2ccccc2)C(=O)c2ccccc2F)c1", "label 1"),
    ("C=CCSc1nc(Cc2ccc(Cl)cc2)nc2ccccc12", "label 0"),
    ("Cc1cccc(N(Cc2ccccc2)C(=O)c2cc(S(=O)(=O)N3CCOCC3)ccc2F)c1", "label 0"),
    ("CC(Sc1nnc(CNC(=O)c2ccccc2F)n1C)C(=O)Nc1nccs1 (stereo not drawn)", "label 0"),
]

q: How was CC(=O)N1CC[n+]2c(-c3ccc([N+](=O)[O-])cc3)csc21 classified in this test?
a: label 0

q: Quick one: CC1CCN(C(=O)/C(=C\c2ccccc2F)NC(=O)c2ccccc2)CC1
a: label 0

q: Quick one: Cc1cc(OCCCCOc2ccc(C#N)cc2)ccc1[N+](=O)[O-]
a: label 1

q: Quick one: Cc1ccc(S(=O)(=O)NCc2cn3ccsc3n2)c(C)c1
a: label 1
